# Test system: PC-3 prostate
# protocol.summary: NCI-60 one-dose screen, 48 h
# setup.conditions: 10 µM unless noted
The panel holds about 83,000 compounds, 20% with a hit somewhere; the sample as a whole holds those more often. Activity calls are given as the source filed them. How the source made its calls: active means growth percent below 10; inactive means the rest.
Permitted responses: t (active), f (inactive)

Some entries whose results are on file:
Cc1c(Cl)ccc2c(C(=O)Cl)cc(-c3ccccc3)nc12 :: f
O=C(Nc1ccc(-n2ccc3c(NC(=O)c4ccccc4)nccc32)cc1)c1ccc(Cl)c(C(F)(F)F)c1 :: f
COc1ccc(C(=O)NC(=O)Nc2ccc3c(c2)NC(=O)/C3=C\c2[nH]c(C)c(C(=O)O)c2C)c(F)c1 :: f

Ask: Hi, sorry to bother you, what did the test record for OC(COc1ccccc1Cl)CN1CCN(c2ccc(Cl)cc2)CC1 (stereo not given) ?
Result: f

Ask: Hi, sorry to bother you, what did the test record for `C=C1C(=O)O[C@H]2[C@H]1CC/C(CNC(=O)/C1=C/CC[C@@]3(C)O[C@H]3[C@H]3OC(=O)C(=C)[C@@H]3CC1)=C\CC[C@@]1(C)O[C@@H]21` ?
Result: f

Ask: Hi, sorry to bother you, what did the test record for CC(C(=O)O)N1C(N)=NNC1c1ccccc1O (stereo not given) ?
Result: f

Ask: Hi, sorry to bother you, what did the test record for O=S(c1ccccc1)c1ccc2nnnn2n1 (stereo not given) ?
Result: f

Ask: Hi, sorry to bother you, what did the test record for CCC1(C(N)=O)CC2C=CC1CC2 (stereo not given) ?
Result: f

Ask: Hi, sorry to bother you, what did the test record for CC12CCC3C(CCC4CC(O)CCC43C)C1C/C(=C/O)C(=O)O2 (stereo not given) ?
Result: f

Ask: Hi, sorry to bother you, what did the test record for `COc1ccc(-c2nn(-c3ccc(NC(=O)Nc4cc(C(F)(F)F)cc(C(F)(F)F)c4)cc3)cc2-c2ccncc2)cc1Cl` ?
Result: t

Ask: Hi, sorry to bother you, what did the test record for `OCc1cn(-c2ccc(Cl)cc2)nc1-c1ccc(O)cc1` ?
Result: f

Ask: Hi, sorry to bother you, what did the test record for `O=C(NCCNc1nccc(-c2c(-c3cccc(O)c3)nc3sccn23)n1)c1ccccc1O` ?
Result: f

Ask: Hi, sorry to bother you, what did the test record for `CNCCCOc1c(Br)cc(CCNC(=O)/C(Cc2cc(Br)c(OC)c(Br)c2)=N/O)cc1Br` ?
Result: t

Ask: Hi, sorry to bother you, what did the test record for `Cn1cnc([N+](=O)[O-])c1N1c2ccncc2Sc2ccncc21` ?
Result: f

Ask: Hi, sorry to bother you, what did the test record for `Cc1c(NC(=O)c2sc3nc4c(cc3c2N)CN(Cc2ccccc2)CC4)cccc1C(F)(F)F` ?
Result: f

Ask: Hi, sorry to bother you, what did the test record for `CN1CCN(Cn2nc(-c3cc(F)c(Cl)cc3Cl)n(/N=C/c3ccc(N(C)C)cc3)c2=S)CC1` ?
Result: f

Ask: Hi, sorry to bother you, what did the test record for `CN1CCN(Cn2nc(-c3cc(Cl)cc(Cl)c3Cl)n(/N=C/c3ccc(Cl)cc3)c2=S)CC1` ?
Result: f

Ask: Hi, sorry to bother you, what did the test record for `Nc1nc(Cl)cc(NCCCCNc2cc(Cl)nc(N)n2)n1` ?
Result: f

Ask: Hi, sorry to bother you, what did the test record for Cc1cn([C@]2(CF)O[C@H](CO)C2C)c(=O)[nH]c1=O (stereo not given in full) ?
Result: f

Ask: Hi, sorry to bother you, what did the test record for `Cc1ccc(-c2cc(-c3nnc(SCC(=O)c4ccccc4)o3)c3ccccc3n2)cc1` ?
Result: f

###

# Tested on: CCRF-CEM leukemia
# protocol.summary: NCI-60 one-dose screen, 48 h
# setup.conditions: 10 µM unless noted
Compounds without any hit were thinned out: in the full panel of roughly 83,000, 20% have a hit. Calls of active or inactive are those of the source. Rule for the calls: active = growth percent below 10; inactive = the rest.
Permitted responses: active, inactive

Cc1nccc2c3ccc(OCc4cn(Cc5ccc(Br)cc5)nn4)cc3n(CCCc3ccccc3)c12 :: inactive

From here, focus on the item given below.
Ask: Hi, sorry to bother you, what did the test record for `COc1cc(-c2nc(N)n(CC(=O)Nc3ccc(/C(C)=N\O)cc3)n2)cc(OC)c1OC` ?
Result: inactive

###

# System: SNB-75 CNS
# protocol.summary: NCI-60 one-dose screen, 48 h (100 = growth as untreated, 0 = no growth, -100 = all killed)
# setup.conditions: 10 µM unless noted
The panel holds about 83,000 compounds, 20% with a hit somewhere; the sample as a whole holds those more often.
metric: growth (%)
Form entry: value (%) — number only.

Below: 3 compounds and their reported growth.
CCn1c(SCC(=O)c2ccc(Br)cc2)nnc1-c1cc2c([nH]c3ccccc32)c(-c2cccc(O)c2)n1 :: 60.9
O=C(Nc1ccc(-n2cc(-c3ccncc3)c(-c3ccc(O)c(Cl)c3)n2)cc1)Nc1cccc(Cl)c1Cl :: 72.5
COc1ccc(-c2c(NC(=O)Nc3ccc(Cl)c(C(F)(F)F)c3)cnn2-c2ccc(S(N)(=O)=O)cc2)cc1 :: 65.7

Given item `CC(C)Cn1cnc2c3ccccc3nc(NCn3nc(-c4cc(Cl)cc(Cl)c4Cl)oc3=S)c21` , the value recorded as its growth is 90

###

# System: SF-295 CNS
# protocol.summary: NCI-60 one-dose screen, 48 h (100 = growth as untreated, 0 = no growth, -100 = all killed)
# setup.conditions: 10 µM unless noted
This is part of a sample that, as a whole, favours compounds with a hit. Of some 83,000 tested, about 20% had one in any assay.
metric: growth (%)
Form entry: value (%) — number only.

CN1CCN(Cn2nc(-c3cc(F)c(Cl)cc3Cl)n(/N=C/c3ccc(N(C)C)cc3)c2=S)CC1 :: 48.4
O=C(NCCNc1nccc(-c2c(-c3cccc(O)c3)nc3sccn23)n1)c1ccccc1O :: 46.4
C[C@]12O[C@H]1[C@H](O)c1c(cc(O)c3c1C(=O)c1cccc(O)c1-3)C2=O :: 102
O=c1c2ccccc2sc2c(NCCCNCCO)nc3ccccc3c12 :: -3.85

Now, please, on to the next compound.
Given item `COc1ccc(-c2nn(-c3cccc(Cl)c3)cc2-c2cc(-c3ccc(Br)cc3)[nH]c(=O)c2C#N)cc1` , the value recorded as its growth is 99.1

###

# Test system: A549/ATCC NSCLC
# protocol.summary: NCI-60 one-dose screen, 48 h
# setup.conditions: 10 µM unless noted
Compounds without any hit were thinned out: in the full panel of roughly 83,000, 20% have a hit. The source made the active and inactive calls. The calls were made as follows: active = growth percent below 10; inactive = the rest.
Permitted responses: 1 (yes) (active), 0 (no) (inactive)

Some entries whose results are on file:
Cc1cn(-c2cc(C(=O)Nc3cccc(-n4ccc5c(NC(=O)c6ccccc6)nccc54)c3)cc(C(F)(F)F)c2)cn1 :: 1 (yes)
O=C1c2ccccc2OC=C(c2ccccc2)N1CCCCNc1ccc(F)cc1 :: 0 (no)
CCc1c(C)c2cc(-n3c(-c4ccc(OC)cc4)csc3=N)c(O)c(C)c2oc1=O :: 0 (no)
O=C(Nc1ccccc1Cl)c1c[nH]c(=O)c(-c2ccc(N3CCCOC4(CC4)C3)cc2)c1 :: 0 (no)
O=C(Nc1ccc(-n2cc(-c3ccncc3)c(-c3ccc(O)c(Cl)c3)n2)cc1)c1cc(Cl)cc(Cl)c1 :: 0 (no)

Ask: Hi, sorry to bother you, what did the test record for `COc1ccc(-c2nnc(SCC(=O)N3CCN(c4cc5c(cc4F)c(=O)c(C(=O)O)cn5C4CC4)CC3)o2)cc1OC` ?
Result: 0 (no)

Ask: Hi, sorry to bother you, what did the test record for `COC(=O)/C=C/C(=O)c1cc(C)cc(C)c1O` ?
Result: 0 (no)

Ask: Hi, sorry to bother you, what did the test record for `COC(=O)Nc1nc2ccc(Sc3ccccc3)cc2[nH]1` ?
Result: 0 (no)

Ask: Hi, sorry to bother you, what did the test record for `OCc1cnccc1NC12CC3CC(CC(C3)C1)C2` ?
Result: 0 (no)

Ask: Hi, sorry to bother you, what did the test record for `Cc1cc(N2CCOCC2)nc(N(CCNc2ccnc3cc(Cl)ccc23)Cc2ccco2)n1` ?
Result: 0 (no)

Ask: Hi, sorry to bother you, what did the test record for CCC(CC(C)C)Nc1ccc(NC(CC)CC(C)C)cc1 (configuration not stated) ?
Result: 0 (no)

Ask: Hi, sorry to bother you, what did the test record for COC1OCC(OS(=O)(=O)c2ccc(C)cc2)C(OC(=O)c2ccccc2)C1OC(=O)c1ccccc1 (configuration not stated) ?
Result: 0 (no)

Ask: Hi, sorry to bother you, what did the test record for CC(C(=O)O)N1C(N)=NNC1c1ccccc1O (configuration not stated) ?
Result: 0 (no)

Ask: Hi, sorry to bother you, what did the test record for `O=C(NCCNc1nccc(-c2c(-c3cccc(O)c3)nc3sccn23)n1)c1ccccc1O` ?
Result: 0 (no)

Measured values drawn from PubChem BioAssay (NCI) for this set.
